- target_entity: human neutrophil elastase (Homo sapiens, UniProt P08246)
- Construct: using elastase from human neutrophil or human sputum; from tissue; host or cells: human neutrophil
- experiment_description: Inhibitory effect on elastase (human neutrophil), spectrophotometric assay with MeOSuc-Ala-Ala-Pro-Val-pNA
- Assay type: biochemical
readout_kind: IC50 (nM)
Provide the reading as a plain figure in nM.

What measured IC50 goes with CC(C)(C)C(=O)Oc1ccc(-c2nnn(CCOC(=O)c3ccc(NC(=N)N)cc3)n2)cc1 [Example 94, Acetate] ?
96

----------
- System: endotoxin induced acute lung injury in mice
- experiment_description: Inhibitory effect on endotoxin induced acute lung injury in mice
- Type: in vivo, ICR mice
- test_context: Mus musculus; oral 10 mg/Kg at 1.5 hr before and 4.5~5.0 hr after LPS (25 μg/site); BAL fluid at 19~20 hrs; read-out: Inhibitory percent of hemorrhage
readout_kind: inhibition in vivo at 10 mg/kg (%)
Provide the reading as a plain figure in %.

molecule: CC(C)c1ccc(Cn2nnc(-c3ccc(OC(=O)C(C)(C)C)cc3)n2)cc1
inhibition in vivo at 10 mg/kg [%]: 33.8
//
molecule: CN(C)c1ccc(Cn2nnc(-c3ccc(OC(=O)C(C)(C)C)cc3)n2)cc1
inhibition in vivo at 10 mg/kg [%]: 84.9
//
molecule: COc1ccc(COCCCCn2nnc(-c3ccc(OC(=O)C(C)(C)C)cc3)n2)cc1
inhibition in vivo at 10 mg/kg [%]: 39.4

What measured inhibition in vivo at 10 mg/kg goes with CC(=O)O.CC(C)(C)C(=O)Oc1ccc(-c2nnn(CCNC(=O)c3ccc(NC(=N)N)cc3)n2)cc1 [Example 95, Acetate] ?
62.3

----------
- target_entity: human neutrophil elastase (Homo sapiens)
- Construct: using elastase from human neutrophil or human sputum; from tissue; host or cells: human neutrophil
- experiment_description: Inhibitory effect on elastase (human neutrophil), spectrophotometric assay with MeOSuc-Ala-Ala-Pro-Val-pNA
- Type: biochemical
- test_context: N: human neutrophil elastase; pH 8.0, 37° C.; read-out: IC50
readout_kind: log10 IC50 (log10 of the value in nM)
Give log10 of IC50, with IC50 taken in nM.

Reference set (4 entries):
compound_structure_string: CC(C)(C)C(=O)Oc1ccc(-c2nnn(CCc3ccccc3)n2)cc1
target_entity: human neutrophil elastase (Homo sapiens)
readout_kind: log10 IC50
recorded_value: 1.88
--
compound_structure_string: CC(C)(C)C(=O)Oc1ccc(-c2nnn(CC(=O)Nc3ccccc3)n2)cc1
target_entity: human neutrophil elastase (Homo sapiens)
readout_kind: log10 IC50
recorded_value: 2.93
--
compound_structure_string: COc1ccc(CCn2nnc(-c3ccc(OC(=O)C(C)(C)C)cc3)n2)cc1
target_entity: human neutrophil elastase (Homo sapiens)
readout_kind: log10 IC50
recorded_value: 1.93
--
compound_structure_string: COc1ccc(Cn2nnc(-c3ccc(OC(=O)C(C)(C)C)cc3)n2)cc1
target_entity: human neutrophil elastase (Homo sapiens)
readout_kind: log10 IC50
recorded_value: 1.86

What measured log10 IC50 goes with CC(C)(C)C(=O)Oc1ccc(-c2nnn(Cc3ccc(O)cc3)n2)cc1 ?
1.90

----------
- target_entity: human neutrophil elastase (Homo sapiens, UniProt P08246)
- Construct: using elastase from human neutrophil or human sputum; from tissue; host or cells: human neutrophil
- experiment_description: Inhibitory effect on elastase (human neutrophil), spectrophotometric assay with MeOSuc-Ala-Ala-Pro-Val-pNA
- Assay type: biochemical
- test_context: N: human neutrophil elastase; pH 8.0, 37° C.; read-out: IC50
readout_kind: pIC50
# pIC50 = -log10(concentration in molar units)

Reference set (3 entries):
compound: CC(C)(C)C(=O)Oc1ccc(-c2nnn(Cc3ccc(C(F)(F)F)cc3)n2)cc1 [Example 17]
target_entity: human neutrophil elastase (Homo sapiens, UniProt P08246)
readout_kind: pIC50
recorded_value: 7.00
--
compound: COc1ccc(COc2ccc(Cn3nnc(-c4ccc(OC(=O)C(C)(C)C)cc4)n3)cc2)cc1 [Example 18]
target_entity: human neutrophil elastase (Homo sapiens, UniProt P08246)
readout_kind: pIC50
recorded_value: 7.77
--
compound: CC(C)(C)C(=O)Oc1ccc(-c2nnn(CCCCCO)n2)cc1 [Example 74]
target_entity: human neutrophil elastase (Homo sapiens, UniProt P08246)
readout_kind: pIC50
recorded_value: 7.01

What measured pIC50 goes with COc1ccc(CCCCn2nnc(-c3ccc(OC(=O)C(C)(C)C)cc3)n2)cc1 [Example 21] ?
7.21

What measured pIC50 goes with CC(C)(C)C(=O)Oc1ccc(-c2nnn(COCc3ccccc3)n2)cc1 [Example 15] ?
7.03

What measured pIC50 goes with CC(C)(C)C(=O)Oc1ccc(-c2nnn(CCCCC(=O)O)n2)cc1 [Example 93] ?
6.28

What measured pIC50 goes with COc1ccc(COCCn2nnc(-c3ccc(OC(=O)C(C)(C)C)cc3)n2)cc1 [Example 41] ?
7.19

What measured pIC50 goes with COc1ccc(COCCCCn2nnc(-c3ccc(OC(=O)C(C)(C)C)cc3)n2)cc1 [Example 42] ?
7.72

What measured pIC50 goes with CC(C)c1ccc(Cn2nnc(-c3ccc(OC(=O)C(C)(C)C)cc3)n2)cc1 [Example 19] ?
7.38

----------
- experiment_description: Cytotoxicity test (MTT, three days)
- Assay type: cell-based
- test_context: mouse, l1210 cells, final concentration 1 μM, read-out: Survival rate
Quick reference for viability at 72 h, 1 µM among some molecules
Dear colleague, please send the value followed by its unit.

Reference set (3 entries):
molecule: CC(C)(C)C(=O)Oc1ccc(-c2nnn(Cc3ccccc3)n2)cc1 [Example 9, 4-(2-Benzyltetrazol-5-yl)phenyl pivalate]
viability at 72 h, 1 µM: 93.9%
//
molecule: CC(C)(C)C(=O)Oc1ccc(-c2nnn(CC(=O)O)n2)cc1
viability at 72 h, 1 µM: 93.9%
//
molecule: CN(C)c1ccc(Cn2nnc(-c3ccc(OC(=O)C(C)(C)C)cc3)n2)cc1
viability at 72 h, 1 µM: 94.2%

What measured viability at 72 h, 1 µM goes with CC(C)[C@H](NC(=O)c1ccc(Cn2nnc(-c3ccc(OC(=O)C(C)(C)C)cc3)n2)cc1)C(=O)O ?
92.2%

What measured viability at 72 h, 1 µM goes with COc1ccc(COCCCCn2nnc(-c3cccc(OC(=O)C(C)(C)C)c3)n2)cc1 ?
104%

----------
- Test system: endotoxin induced acute lung injury in mice
- experiment_description: Inhibitory effect on endotoxin induced acute lung injury in mice
- Format: in vivo, ICR mice
- test_context: Mus musculus; oral 10 mg/Kg at 1.5 hr before and 4.5~5.0 hr after LPS (25 μg/site); BAL fluid at 19~20 hrs; read-out: Inhibitory percent of hemorrhage
readout_kind: inhibition in vivo at 10 mg/kg (%)
Provide the reading as a plain figure in %.

Reference set (2 entries):
compound: CC(C)(C)C(=O)Oc1ccc(-c2nnn(CCOC(=O)c3ccc(NC(=N)N)cc3)n2)cc1 [Example 94, Acetate]
unit_descriptor: %
inhibition in vivo at 10 mg/kg: 36.6

compound: CN(C)Cc1ccc(Cn2nnc(-c3ccc(OC(=O)C(C)(C)C)cc3)n2)cc1
unit_descriptor: %
inhibition in vivo at 10 mg/kg: 48.6

What measured inhibition in vivo at 10 mg/kg goes with CC(C)(C)C(=O)Oc1ccc(-c2nnn(Cc3ccc(C(=O)N4CCC[C@H]4C(=O)O)cc3)n2)cc1 ?
81.5

What measured inhibition in vivo at 10 mg/kg goes with CN(C)c1ccc(Cn2nnc(-c3ccc(OC(=O)C(C)(C)C)c(N(C)C)c3)n2)cc1 ?
88.5

----------
Quick reference for IC50 among some compounds
- target_entity: human sputum elastase (Homo sapiens)
- Sequence (P08246 30-247 limits assumed): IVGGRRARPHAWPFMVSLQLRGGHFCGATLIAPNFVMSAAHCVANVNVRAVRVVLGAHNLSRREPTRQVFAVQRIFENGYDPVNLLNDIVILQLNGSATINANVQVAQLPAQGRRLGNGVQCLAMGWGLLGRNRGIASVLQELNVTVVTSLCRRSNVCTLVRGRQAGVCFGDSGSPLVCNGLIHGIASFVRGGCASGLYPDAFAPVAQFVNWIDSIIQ
- experiment_description: Inhibitory effect on elastase (human sputum), spectrophotometric assay with MeOSuc-Ala-Ala-Pro-Val-pNA
- Format: biochemical
- test_context: S: human sputum elastase; pH 8.0, 37° C.; read-out: IC50
Where a name gives a salt, the structure may show the parent alone.
Dear colleague, please send the value followed by its unit.

Reference set (4 entries):
compound: COc1ccc(COCCCCCn2nnc(-c3ccc(OC(=O)C(C)(C)C)cc3)n2)cc1
recorded_value: 130 nM
--
compound: COc1ccc(COCCCCn2nnc(-c3ccccc3OC(=O)C(C)(C)C)n2)cc1
recorded_value: 4300 nM
--
compound: CN(C)c1ccc(Cn2nnc(-c3ccc(OC(=O)C(C)(C)C)c(N(C)C)c3)n2)cc1
recorded_value: 540 nM
--
compound: CC(C)(C)C(=O)Oc1ccc(-c2nnn(C(C(=O)OCc3ccccc3)c3ccccc3)n2)cc1 (stereo not drawn)
recorded_value: 38 nM

What measured IC50 goes with CC(C)(C)C(=O)Oc1ccc(-c2nnn(Cc3ccc(C(=O)N[C@@H](CCC(=O)O)C(=O)O)cc3)n2)cc1 ?
30 nM

What measured IC50 goes with CC(C)Cn1nnc(-c2ccc(OC(=O)C(C)(C)C)cc2)n1 ?
180 nM

What measured IC50 goes with CC(C)(C)C(=O)Oc1ccc(-c2nnn(Cc3ccccc3NS(C)(=O)=O)n2)cc1 ?
140 nM

What measured IC50 goes with CC(C)(C)C(=O)Oc1ccc(-c2nnn(Cc3ccc(C(=O)NCC(=O)O)cc3)n2)cc1 ?
29 nM

What measured IC50 goes with CC(C)(C)C(=O)Oc1ccc(-c2nnn(Cc3ccccc3N)n2)cc1 ?
91 nM

What measured IC50 goes with CC(C)(C)C(=O)Oc1ccc(-c2nnn(Cc3ccccc3OCCN)n2)cc1 [Example 84, Hydrochloride] ?
720 nM

What measured IC50 goes with CN(C)c1ccc(Cn2nnc(-c3ccc(OC(=O)C(C)(C)C)cc3)n2)cc1 ?
150 nM

What measured IC50 goes with Cc1cc(-c2nnn(Cc3ccc(C(=O)O)cc3)n2)ccc1OC(=O)C(C)(C)C ?
1000 nM

What measured IC50 goes with CC(C)c1ccc(Cn2nnc(-c3ccc(OC(=O)C(C)(C)C)cc3)n2)cc1 ?
510 nM

What measured IC50 goes with CC(C)(C)C(=O)Oc1ccc(-c2nnn(Cc3cccc(N)c3)n2)cc1 ?
150 nM

What measured IC50 goes with CNc1ccc(Cn2nnnc2-c2ccc(OC(=O)C(C)(C)C)cc2)cc1 ?
580 nM

What measured IC50 goes with CC(C)(C)C(=O)Oc1ccc(-c2nnn(C(C(=O)O)c3ccccc3)n2)cc1 (stereo not drawn) ?
820 nM

What measured IC50 goes with CC(C)(C)C(=O)Oc1ccc(-c2nnn[nH]2)cc1 [Example 3, 4-(1H-Tetrazol-5-yl)phenyl pivalate] ?
2000 nM

What measured IC50 goes with CSCCC(NC(=O)c1ccc(Cn2nnc(-c3ccc(OC(=O)C(C)(C)C)cc3)n2)cc1)C(=O)O (racemic) ?
79 nM
